target: human D1 receptor (Homo sapiens, UniProt P21728); construct: expressed in transfected cells; host or cells: HEK-D1 cells (HEK cells expressing the human D1 clone); test: Adenylate cyclase activity (cAMP stimulation in HEK-D1 cells); assay type: cell-based; details: read-out: IA (relative intrinsic activity to dopamine)
Sequence (P21728 whole entry): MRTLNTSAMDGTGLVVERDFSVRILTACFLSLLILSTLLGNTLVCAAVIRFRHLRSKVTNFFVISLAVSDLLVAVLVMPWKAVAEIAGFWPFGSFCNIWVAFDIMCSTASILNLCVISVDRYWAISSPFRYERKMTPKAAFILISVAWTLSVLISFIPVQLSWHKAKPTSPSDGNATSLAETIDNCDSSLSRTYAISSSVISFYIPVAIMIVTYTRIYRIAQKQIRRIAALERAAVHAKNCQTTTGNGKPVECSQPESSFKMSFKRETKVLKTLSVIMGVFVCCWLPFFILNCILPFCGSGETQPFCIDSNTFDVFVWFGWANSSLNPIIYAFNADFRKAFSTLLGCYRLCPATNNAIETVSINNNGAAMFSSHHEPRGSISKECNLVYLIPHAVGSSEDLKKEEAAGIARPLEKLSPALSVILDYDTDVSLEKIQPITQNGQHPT
Where a name gives a salt, the structure may show the parent alone.
Measured Emax accompanies every entry in the list below.

Would you please look over these solved cases?
- Compound: "COc1ccc2c(n1)CN[C@H]1CCc3cc(O)c(O)cc3[C@H]21 (relative stereo) [Example 4, dihydrobromide]"
  Experimental target: "human D1 receptor (Homo sapiens, UniProt P21728)"
  Emax: "114%"
- Compound: "Oc1cc2c(cc1O)[C@@H]1c3cnccc3CN[C@H]1CC2 (relative stereo) [Example 11, dihydrobromide]"
  Experimental target: "human D1 receptor (Homo sapiens, UniProt P21728)"
  Emax: "81%"
- Compound: "Cc1cnc2c(c1)[C@H]1c3cc(O)c(O)cc3CC[C@@H]1NC2 (relative stereo) [Example 7, dihydrobromide]"
  Experimental target: "human D1 receptor (Homo sapiens, UniProt P21728)"
  Emax: "156%"
- Compound: "Oc1cc2c(cc1O)[C@@H]1c3ccc(F)nc3CN[C@H]1CC2 (relative stereo) [Example 5, dihydrobromide]"
  Experimental target: "human D1 receptor (Homo sapiens, UniProt P21728)"
  Emax: "141%"
- Compound: "Cc1cncc2c1CN[C@H]1CCc3cc(O)c(O)cc3[C@H]21 (relative stereo) [Example 14, dihydrobromide]"
  Experimental target: "human D1 receptor (Homo sapiens, UniProt P21728)"
  Emax: "75%"

Ask | Item Oc1cc2c(cc1O)[C@@H]1c3cccnc3CN[C@H]1CC2 (relative stereo) [Example 1, dihydrobromide] with human D1 receptor (Homo sapiens, UniProt P21728) - Emax?
Reply | 125%

Ask | Item Cc1ccc2c(n1)CN[C@H]1CCc3cc(O)c(O)cc3[C@H]21 (relative stereo) [Example 2, dihydrobromide] with human D1 receptor (Homo sapiens, UniProt P21728) - Emax?
Reply | 121%

Ask | Item CCCCc1cnc2c(c1)[C@H]1c3cc(O)c(O)cc3CC[C@@H]1NC2 (relative stereo) [Example 8, dihydrobromide] with human D1 receptor (Homo sapiens, UniProt P21728) - Emax?
Reply | 118%

Ask | Item Oc1cc2c(cc1O)[C@@H]1c3cc4c(nc3CN[C@H]1CC2)CCCC4 (relative stereo) [Example 10, dihydrobromide] with human D1 receptor (Homo sapiens, UniProt P21728) - Emax?
Reply | 136%

Ask | Item Cc1cc2c(nc1C)CN[C@H]1CCc3cc(O)c(O)cc3[C@H]21 (relative stereo) [Example 9, dihydrobromide] with human D1 receptor (Homo sapiens, UniProt P21728) - Emax?
Reply | 134%

Ask | Item CCCc1ccc2c(n1)CN[C@H]1CCc3cc(O)c(O)cc3[C@H]21 (relative stereo) [Example 3, dihydrobromide] with human D1 receptor (Homo sapiens, UniProt P21728) - Emax?
Reply | 116%

Ask | Item Oc1cc2c(cc1O)[C@@H]1c3cncc(F)c3CN[C@H]1CC2 (relative stereo) [Example 12, dihydrobromide] with human D1 receptor (Homo sapiens, UniProt P21728) - Emax?
Reply | 126%

Ask | Item Oc1cc2c(cc1O)[C@@H]1c3ccncc3CN[C@H]1CC2 (relative stereo) [Example 13, dihydrobromide] with human D1 receptor (Homo sapiens, UniProt P21728) - Emax?
Reply | 131%
